All figures here come from patent US11117883B2.

molecular target: BAF3 FL KIT EX11DEL/T6701 (Homo sapiens, UniProt P10721, T670I, cells depend on it, form not given); construct: "BAF3 FL KIT EX11DEL/ T6701"; test: c-Kit assay: Ba/F3 KIT mutant viability (Cell Titer-Glo, 72 hours); type: cell-based; conditions: EX11DEL/T6701, viability after 72 hours
Sequence (P10721 with tags, fused parts or gaps DEL557-558/T670I, form open): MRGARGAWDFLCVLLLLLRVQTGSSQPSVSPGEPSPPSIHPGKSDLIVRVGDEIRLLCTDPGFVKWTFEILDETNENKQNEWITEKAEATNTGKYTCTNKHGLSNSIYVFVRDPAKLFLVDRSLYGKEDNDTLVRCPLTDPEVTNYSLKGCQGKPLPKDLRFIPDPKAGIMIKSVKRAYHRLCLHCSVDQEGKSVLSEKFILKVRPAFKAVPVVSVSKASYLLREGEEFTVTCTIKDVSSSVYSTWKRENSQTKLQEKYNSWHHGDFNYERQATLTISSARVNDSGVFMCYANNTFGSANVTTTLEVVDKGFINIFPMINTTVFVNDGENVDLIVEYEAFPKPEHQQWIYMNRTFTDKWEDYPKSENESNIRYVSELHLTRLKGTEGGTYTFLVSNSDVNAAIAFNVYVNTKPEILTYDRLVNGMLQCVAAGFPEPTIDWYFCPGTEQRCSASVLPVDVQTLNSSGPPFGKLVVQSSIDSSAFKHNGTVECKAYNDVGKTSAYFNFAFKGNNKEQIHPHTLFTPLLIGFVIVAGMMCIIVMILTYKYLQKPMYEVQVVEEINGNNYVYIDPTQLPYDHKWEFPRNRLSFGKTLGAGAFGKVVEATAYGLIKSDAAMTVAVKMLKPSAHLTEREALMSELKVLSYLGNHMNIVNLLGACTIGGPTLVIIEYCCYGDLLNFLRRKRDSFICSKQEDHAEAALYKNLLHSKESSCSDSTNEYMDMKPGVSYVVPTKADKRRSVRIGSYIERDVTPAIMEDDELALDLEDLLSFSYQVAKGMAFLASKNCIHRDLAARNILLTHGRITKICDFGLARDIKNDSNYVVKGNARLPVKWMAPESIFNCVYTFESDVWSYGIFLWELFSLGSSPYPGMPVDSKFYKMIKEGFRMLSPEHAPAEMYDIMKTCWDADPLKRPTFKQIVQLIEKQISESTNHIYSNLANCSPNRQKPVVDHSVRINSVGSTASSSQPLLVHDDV
Listed next: entries and their corresponding GI50.

molecule	GI50
Cc1ccc(C(=O)Nc2ccc(C#N)c(C(F)(F)F)c2)cc1C#Cc1ccc2c(c1)ncn2-c1ccn(C)n1	0.01 to 0.05 µM
Cc1ccc(NC(=O)c2ccc(CN3CCN(C)CC3)c(C(F)(F)F)c2)cc1C#Cc1ccc2c(c1)ncn2C	0.1 to 10 µM
Cn1cc(-n2cnc3cc(C#Cc4cc(C(=O)Nc5cc(C(F)(F)F)ccn5)ccc4F)ccc32)cn1	< 0.01 µM
Cc1ccc(C(=O)Nc2cc(C(F)(F)F)ccn2)cc1C#Cc1ccc2[nH]cnc2c1	0.01 to 0.05 µM
Cc1ccc(C(=O)Nc2cc(C(F)(F)F)ccn2)cc1C#Cc1ccc2c(c1)ncn2-c1cnn(C)c1 [Compound I-17]	0.01 to 0.05 µM
Cc1ccc(NC(=O)c2cc(C(F)(F)F)ccn2)cc1C#Cc1ccc2c(c1)ncn2C	0.01 to 0.05 µM
Cc1ccc(C(=O)Nc2cc(C(F)(F)F)ccn2)cc1C#Cc1ccc2c(c1)ncn2-c1cnn(C)c1 [Compound I-19]	< 0.01 µM

###

Listed next: entries and their corresponding GI50.
target: BAF3 FL KIT EX11DEL/D816H (Homo sapiens, UniProt P10721, D816H, cells depend on it, form not given); construct: "BAF3 FL KIT EX11DEL/ D816H"; assay: c-Kit assay: Ba/F3 KIT mutant viability (Cell Titer-Glo, 72 hours); format: cell-based; conditions: viability after 72 hours
Sequence (P10721 with tags, fused parts or gaps DEL557-558/D816H, form open): as the sequence (P10721 with tags, fused parts or gaps DEL557-558/T670I, form open) above, with I668T, D814H counted along it
reported endpoint: GI50

1. Cc1ccc(C(=O)Nc2cc(C(F)(F)F)ccn2)cc1C#Cc1ccc2c(c1)ncn2-c1cn(C2CCN(C)CC2)cn1 100 to 10000 nM
2. COCCn1cc(-n2cnc3cc(C#Cc4cc(NC(=O)c5cc(C(F)(F)F)ccn5)ccc4C)ccc32)cn1 50 to 100 nM
3. Cc1ccc(C(=O)Nc2cc(C(F)(F)F)ccn2)cc1C#Cc1ccc2c(c1)ncn2-c1cnn(C2CCNCC2)c1 10 to 50 nM
4. Cc1ccc(C(=O)Nc2cc(C(F)(F)F)ccn2)cc1C#Cc1ccc2c(c1)ncn2-c1cn[nH]c1 10 to 50 nM

###

target: BAF3 FL KIT EX11DEL/D816H (Homo sapiens, UniProt P10721, D816H, cells depend on it, form not given); construct: "BAF3 FL KIT EX11DEL/ D816H"; experiment: c-Kit assay: Ba/F3 KIT mutant viability (Cell Titer-Glo, 72 hours); assay type: cell-based; settings: viability after 72 hours
Listed next: entries and their corresponding GI50.
reported endpoint: GI50

1) Cc1ccc(C(=O)Nc2cc(C(F)(F)F)ccn2)cc1C#Cc1ccc2nc(N)[nH]c2c1 100 to 10000 nM
2) Cc1ccc(C(=O)Nc2cc(C(F)(F)F)ccn2)cc1C#Cc1ccc2c(c1)ncn2-c1cn(C)cn1 10 to 50 nM
3) Cn1cc(-n2cnc3cc(C#Cc4cccc(C(=O)Nc5cc(C(F)(F)F)ccn5)c4)ccc32)cn1 100 to 10000 nM
4) Cc1ccc(C(=O)Nc2cc(C(F)(F)F)ccn2)cc1C#Cc1ccc2c(c1)ncn2-c1cn(C)nn1 10 to 50 nM
5) Cc1ccc(NC(=O)c2cc(C(F)(F)F)ccn2)cc1C#Cc1ccc2c(c1)ncn2-c1cnn(CCO)c1 10 to 50 nM
6) CCn1cnc2cc(C#Cc3cc(C(=O)Nc4cc(C(F)(F)F)ccn4)ccc3C)ccc21 100 to 10000 nM
7) Cc1ccc(C(=O)Nc2cc(C(F)(F)F)ccn2)cc1C#Cc1ccc2c(c1)ncn2Cc1cccnc1 100 to 10000 nM
